- target-desc: HIV Env of isolate 6545.v4.c1 (clade AC) (HIV)
- measurement-protocol: cell-based or functional assay
The reader will find reported IC50 (µg/ml) with constrains values listed item by item below.
result-type: IC50 (µg/ml) with constrains (µg/mL)

binder	display-unit	measurement
PGDM1400 (antibody, V domains shown) VH: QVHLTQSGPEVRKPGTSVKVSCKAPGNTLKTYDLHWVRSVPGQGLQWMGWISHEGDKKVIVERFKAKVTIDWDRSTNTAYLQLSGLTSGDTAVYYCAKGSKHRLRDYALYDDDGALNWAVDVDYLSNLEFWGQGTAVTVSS VL: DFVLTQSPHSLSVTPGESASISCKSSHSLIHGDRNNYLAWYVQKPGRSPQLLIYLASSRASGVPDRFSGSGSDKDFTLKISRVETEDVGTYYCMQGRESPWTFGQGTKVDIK	µg/mL	0.148
ePGDM5 (antibody, V domains shown) VH: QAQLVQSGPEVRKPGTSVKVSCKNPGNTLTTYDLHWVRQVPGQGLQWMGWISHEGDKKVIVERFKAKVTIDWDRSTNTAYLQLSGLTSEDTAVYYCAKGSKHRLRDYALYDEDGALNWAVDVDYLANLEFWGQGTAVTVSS VL: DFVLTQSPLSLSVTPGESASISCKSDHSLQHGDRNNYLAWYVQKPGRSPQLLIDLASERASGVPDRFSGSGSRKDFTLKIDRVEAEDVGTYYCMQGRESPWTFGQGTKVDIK	µg/mL	0.043
ePGDM13 (antibody, V domains shown) VH: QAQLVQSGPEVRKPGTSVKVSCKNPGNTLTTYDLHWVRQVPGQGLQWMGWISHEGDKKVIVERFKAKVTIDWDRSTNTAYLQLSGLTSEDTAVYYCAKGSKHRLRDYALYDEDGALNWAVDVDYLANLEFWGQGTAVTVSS VL: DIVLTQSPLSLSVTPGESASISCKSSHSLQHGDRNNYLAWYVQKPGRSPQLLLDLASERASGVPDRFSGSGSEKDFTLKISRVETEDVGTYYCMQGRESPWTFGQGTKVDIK	µg/mL	0.076
ePGDM9 (antibody, V domains shown) VH: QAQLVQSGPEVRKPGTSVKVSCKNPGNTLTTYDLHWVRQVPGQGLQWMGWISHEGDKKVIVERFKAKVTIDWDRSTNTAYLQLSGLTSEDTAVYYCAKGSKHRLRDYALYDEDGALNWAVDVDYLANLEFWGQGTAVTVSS VL: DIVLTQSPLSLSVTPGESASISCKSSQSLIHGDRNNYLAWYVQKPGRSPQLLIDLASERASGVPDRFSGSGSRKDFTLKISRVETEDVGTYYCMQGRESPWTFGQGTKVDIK	µg/mL	0.041
